Test: gradient 5% acetonitrile 3 min, to 50% in 2 min, to 85% in 15 min, held 3 min, 100 µL/min
Settings: column: Zorbax Extend-C18 2.1 x 50 mm; eluents: water / acetonitrile, 0.1% formic acid
measure: RP-LC retention time (s)

INSERT INTO results (itemsmiles, unitinfo, measured) VALUES
  ('O=C1CCCc2cc(S(=O)(=O)Nc3ccc(CN4CCCCC4)cc3)ccc2N1', 's', 597),
  ('CCOc1ccc(-c2noc(-c3nn(-c4cccc(OC)c4)ccc3=O)n2)cc1', 's', 938),
  ('COCc1nn(CC2CC2)c2c1CN(C(=O)c1ccc(OC)cc1)CC2', 's', 715),
  ('Cc1ccc(-c2cc3c(=O)n(Cc4noc(-c5ccc6c(c5)OCO6)n4)ccn3n2)c(C)c1', 's', 1120),
  ('Cc1cccc(CNC(=O)c2sc(CC(=O)N3CCSCC3)nc2C)c1', 's', 798);
